Test system: NCI-H522 lung
assay protocol: NCI-60 one-dose screen, 48 h
reported conditions: 10 µM unless noted
About 83,000 compounds went through this panel and 20% of them were active in at least one assay; those are over-represented in the sample as a whole. Activity calls are given as the source filed them. Rule for the calls: active = growth percent below 10; inactive = the rest.
// allowed return values: true (1) (active), false (0) (inactive)

Use the examples below as a reference point.
O=C(CSc1nc(-c2ccccc2)cc(=O)[nH]1)Nc1nc(-c2ccccc2)cs1	false (0)
O=C(/C=C/C12c3ccccc3C(c3ccccc31)C1C(=O)NC(=O)C12)c1ccc(Br)cc1 (stereo not given)	false (0)
CNC1=CC(=O)c2c(C(=O)OC)c(C)[n+]([O-])c(C)c2C1=O	false (0)
CC1CCN(C(=S)SCC(=O)NC(=O)c2ccccc2)CC1	false (0)
COC(=O)C(Cc1ccccc1)NC(=O)c1ccc(NC(=O)c2[nH]c(C)c(Cl)c2Cl)c(OC(C)C)c1 (stereo not given)	false (0)
COC(=O)/C=C1/SC(=Nc2ccc([N+](=O)[O-])cc2)N(CCc2c[nH]c3ccc(O)cc23)C1=O	false (0)

Which result was noted for this compound in the test: O=S(=O)(NCCCNc1nccc(-c2c(-c3cccc(F)c3)nc3occn23)n1)c1ccc(F)cc1
false (0)

Which result was noted for this compound in the test: NC1(CO)COC(c2ccccc2)OC1 (stereo not given)
false (0)

Which result was noted for this compound in the test: Nc1nc(N)c2c(n1)NC(c1cccc(Nc3ccnc4cc(C(F)(F)F)ccc34)c1)CC(c1ccc(Br)cc1)=N2 (stereo not given)
false (0)

Which result was noted for this compound in the test: COc1ccc(C(=O)/C=C/c2ccc(Cl)cc2)cc1S(=O)(=O)Nc1c(N)nc(SC)[nH]c1=O
false (0)

Which result was noted for this compound in the test: O=C(/C=C/c1ccc(Cl)cc1)c1cccc(OCCCOc2cccc(C(=O)/C=C/c3ccc(Cl)cc3)c2)c1
false (0)

Which result was noted for this compound in the test: O=C(Nc1ccccc1N1CCCC1=O)c1oc2ccc(F)cc2c1-c1cnn(-c2ccccc2)c1
false (0)

Which result was noted for this compound in the test: O=C1C(Nc2ccccn2)=C(I)C(=O)c2ncccc21
true (1)

Which result was noted for this compound in the test: COc1ccc(/C=C/C(c2cc(OC)c(OC)c(OC)c2)n2cncn2)cc1 (stereo not given)
false (0)
